Hi there, I'd appreciate the recorded cAMP assay (ALPHAScreen), result at 10 µM peptide for every entry that follows.
- target-desc: Kappa opioid receptor (KOR) (Homo sapiens (Human), UniProt P41145 1-380)
- Sequence (P41145 whole entry, form in doubt): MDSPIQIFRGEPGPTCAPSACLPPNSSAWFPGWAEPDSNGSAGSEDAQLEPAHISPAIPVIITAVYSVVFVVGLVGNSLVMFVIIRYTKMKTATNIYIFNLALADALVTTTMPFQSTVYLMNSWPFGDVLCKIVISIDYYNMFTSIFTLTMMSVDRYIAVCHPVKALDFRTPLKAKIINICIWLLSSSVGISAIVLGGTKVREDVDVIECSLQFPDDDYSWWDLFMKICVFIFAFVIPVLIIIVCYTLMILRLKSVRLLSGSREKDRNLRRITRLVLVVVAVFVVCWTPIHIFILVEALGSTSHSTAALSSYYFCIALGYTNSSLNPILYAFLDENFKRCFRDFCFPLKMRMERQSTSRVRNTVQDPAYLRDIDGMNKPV
- assay: cell-based or functional assay
Square brackets hold non-standard residues; d marks the D form. Phe(4-NO2) = N[C@@H](Cc1ccc([N+](=O)[O-])cc1)C(=O)O; Sar = CNCC(=O)O
# output: bare number, no unit

Note down cAMP assay (ALPHAScreen), result at 10 µM peptide recorded for H-Y[Sar]FLRR-NH2 [SEQ ID NO. 2: NH2-Tyr-Sar-Phe-Leu-Arg-Arg-NH2]
32.4

Note down cAMP assay (ALPHAScreen), result at 10 µM peptide recorded for H-Y[Sar][Phe(4-NO2)]L[dK][dR]-NH2 [SEQ ID NO. 10: NH2-Tyr-Sar-(4-NO2)Phe-Leu-DLys-DArg-NH2]
25.1

Note down cAMP assay (ALPHAScreen), result at 10 µM peptide recorded for H-Y[Sar]FL[dR]R-NH2 [SEQ ID NO. 6: NH2-Tyr-Sar-Phe-Leu-DArg-Arg-NH2]
35.1

Note down cAMP assay (ALPHAScreen), result at 10 µM peptide recorded for H-Y[Sar]FL[dR][dR]-NH2 [SEQ ID NO. 7: NH2-Tyr-Sar-Phe-Leu-DArg-DArg-NH2]
36

Note down cAMP assay (ALPHAScreen), result at 10 µM peptide recorded for H-F[Sar][Phe(4-NO2)]L[dR][dR]-NH2 (SMILES CC(C)C[C@H](NC(=O)[C@H](Cc1ccc([N+](=O)[O-])cc1)NC(=O)CN(C)C(=O)[C@@H](N)Cc1ccccc1)C(=O)N[C@H](CCCNC(=N)N)C(=O)N[C@H](CCCNC(=N)N)C(N)=O) [SEQ ID NO. 9: NH2-Phe-Sar-(4-NO2)Phe-Leu-DArg-DArg-NH2]
23.1
